system: total TGF-β1; assay: production of total TGF-β1 in glomeruli isolated from nephritic mice (ELISA); format: cell-based, BALB/c male mice; settings: Mus musculus, 10^-6 M, 48 hours, supernatant acid treated, read-out: Inhibition rate (%) of production of total TGF-β1
The reader will find reported inhibition at 1 µM values listed item by item below.
metric_name: inhibition at 1 µM (%)

1) COc1ccc(CCN(C)C(=O)/C(C)=C/c2cccnc2)cc1OC = 31.9
2) COC(=O)c1cncc(/C=C/C(=O)N(C)CCc2ccc(OC)c(OC)c2)c1 = 49.8
3) COc1ccc(CCN(C)C(=O)/C=C/c2cccnc2)cc1O = 56.8
4) COc1ccc(CCN(C)C(=O)/C=C/c2cncc(Cl)c2)cc1OC = 32.6
5) COc1ccc(CCN(C)C(=O)/C(C#N)=C/c2cccnc2)cc1OC = 56.7
6) COc1ccc(CCN(C)C(=O)/C=C/c2ccccn2)cc1OC = 31
7) COc1cc(CCN(C)C(=O)/C=C/c2cccnc2)ccc1O = 84
